All figures here come from the supplement of paper PMC7877785.

Experiment: self-splicing fitness, log relative to wild type (ln ratio); higher = more splicing; Tetrahymena group I intron in knt gene, E. coli kanamycin selection, DiMSum; sequences stand for … in CUCUCU…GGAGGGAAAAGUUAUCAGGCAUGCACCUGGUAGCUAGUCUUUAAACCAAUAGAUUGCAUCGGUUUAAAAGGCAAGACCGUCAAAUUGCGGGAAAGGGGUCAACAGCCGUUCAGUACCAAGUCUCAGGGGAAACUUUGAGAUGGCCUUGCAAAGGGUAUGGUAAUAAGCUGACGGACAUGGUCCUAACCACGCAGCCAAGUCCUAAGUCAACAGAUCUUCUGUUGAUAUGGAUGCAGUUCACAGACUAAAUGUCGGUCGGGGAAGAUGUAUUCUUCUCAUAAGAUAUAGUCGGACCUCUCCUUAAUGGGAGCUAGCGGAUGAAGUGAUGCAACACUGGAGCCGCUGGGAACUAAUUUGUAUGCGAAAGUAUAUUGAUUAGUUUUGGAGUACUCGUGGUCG;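 further: selection with 25 µg/mL kanamycin versus none on LB agar overnight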
Details: 30 °C
readoutName: self-splicing fitness (ln)

• CCUCAGCAAUAUUACGGCAC = -3.55
• GGCUAGCAAUAUUACGUGAC = -1.84
• ACUCAGCAAUAUUACGGCAG = -1.52
• AUAGAGCAAUAUUACGCUGG = -1.97
• AUGAAGCAAUAUUACGACAA = 0.158
• UAUUAGCAAUAUUACGGUUC = -3.84
• GAACAGCAAUAUUACGCAUA = -0.914
• UUCGAGCAAUAUUACGACUA = 0.544
• GCAAAGCAAUAUUACGUGUC = -4.47
• AUGAAGCAAUAUUACGAGCU = -1.52
• CAUAAGCAAUAUUACGUACG = -0.507
• UCUCAGCAAUAUUACGCUCC = -1.02
• CCAGAGCAAUAUUACGACCU = -2.54
• CCAUAGCAAUAUUACGAUGC = -3.11
• CGGGAGCAAUAUUACGGUGG = -3.1
• UACCAGCAAUAUUACGUGUC = -2.04
